Target: B-Raf (V600E)-kinase (Homo sapiens (Human), UniProt P15056, V600E)
Sequence (P15056 whole entry V600E): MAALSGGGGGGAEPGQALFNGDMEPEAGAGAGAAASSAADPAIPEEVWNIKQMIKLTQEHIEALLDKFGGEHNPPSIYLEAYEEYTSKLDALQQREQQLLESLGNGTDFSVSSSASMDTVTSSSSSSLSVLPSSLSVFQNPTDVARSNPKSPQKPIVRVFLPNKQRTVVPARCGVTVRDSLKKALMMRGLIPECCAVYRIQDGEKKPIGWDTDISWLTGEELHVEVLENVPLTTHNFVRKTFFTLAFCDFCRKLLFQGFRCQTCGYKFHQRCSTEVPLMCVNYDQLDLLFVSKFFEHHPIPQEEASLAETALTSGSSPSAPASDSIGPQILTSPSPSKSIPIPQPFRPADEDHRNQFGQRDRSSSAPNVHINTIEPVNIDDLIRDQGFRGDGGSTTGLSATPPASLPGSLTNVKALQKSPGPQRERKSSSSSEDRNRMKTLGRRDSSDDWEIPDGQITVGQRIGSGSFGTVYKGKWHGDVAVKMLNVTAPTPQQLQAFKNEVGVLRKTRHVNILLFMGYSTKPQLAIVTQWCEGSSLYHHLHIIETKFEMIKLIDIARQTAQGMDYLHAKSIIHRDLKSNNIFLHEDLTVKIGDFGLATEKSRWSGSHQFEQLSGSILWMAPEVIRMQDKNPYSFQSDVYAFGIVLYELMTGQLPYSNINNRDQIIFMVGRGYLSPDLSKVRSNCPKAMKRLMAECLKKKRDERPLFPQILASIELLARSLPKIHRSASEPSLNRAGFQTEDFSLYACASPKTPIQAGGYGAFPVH
Test: Kinase test B-Raf (V600E)
Settings: 1 h preincubation, 250 μM ATP
Measured Parameter: pIC50
Scale: negative log10 of molar concentration, which is what pIC50 denotes.

Please review the following examples before continuing.
Cc1ccc(C(=O)Nc2cc(C(F)(F)F)ccn2)cc1-n1cc(-c2cncc(NC3CCOC3)c2)nn1 (stereo not drawn)
7.96
Cc1ccc(NC(=O)c2cc(CN3CCCC3)c(C(C)(C)C)o2)cc1-n1cc(-c2cncc(N3CCOCC3)c2)nn1
7.96

query: // pIC50 lookup, key: CCOCCN1CCN(c2cncc(-c3cn(-c4cc(NC(=O)c5ccc(C(C)(C)C)s5)ccc4C)nn3)c2)CC1
result: 8.00
